assay: qHTS Assay for Identifying Gametocytocidal Compounds (AID 743244);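 also: % is scaled to controls: 0 for no effect and ±100 for the full control effect; actives lower the fluorescent signal which means gametocytes are killed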; details: P. falciparum 3D7 stage III-V gametocytes, alamarBlue, 72 h; hits give low values
Results filed as inconclusive are left out.
# reported max response; entries follow

{"MOLECULE": "O=c1[nH]c(=O)n([C@H]2C[C@H](O)[C@@H](CO)O2)cc1I", "max response / %": 3.28}
{"MOLECULE": "O=C(O)Cc1ccc(CCNS(=O)(=O)c2ccc(Cl)cc2)cc1", "max response / %": 23.5}
{"MOLECULE": "CN[C@@H]1[C@@H](O)[C@@H](O[C@@H]2[C@H](O)[C@H](O[C@H]3OC(CN)=CC[C@H]3N)[C@@H](N)C[C@H]2N)OCC1(C)O (stereo partly drawn)", "max response / %": -9.46}
{"MOLECULE": "Cc1ccsc1/C=C/C1=NCCCN1C", "max response / %": 6.27}
{"MOLECULE": "CCN(CC)C(=O)c1cccc(C)c1", "max response / %": 18.7}
{"MOLECULE": "CC1CC(OC(=O)c2ccccc2O)CC(C)(C)C1 (stereo not drawn)", "max response / %": -1.2}
{"MOLECULE": "C=CCOc1ccccc1OCC(O)CNC(C)C (stereo not drawn)", "max response / %": 5.69}
{"MOLECULE": "CO[C@@]1(NC(=O)C(C(=O)O)c2ccc(O)cc2)C(=O)N2C(C(=O)O)=C(CSc3nnnn3C)CO[C@@H]21 (stereo partly drawn)", "max response / %": 2.23}
{"MOLECULE": "C=CCSCC1Nc2cc(Cl)c(S(N)(=O)=O)cc2S(=O)(=O)N1 (stereo not drawn)", "max response / %": 15.7}
{"MOLECULE": "CNCc1ccccc1", "max response / %": 8.64}
{"MOLECULE": "CC1(C)S[C@@H]2[C@H](N=CN3CCCCCC3)C(=O)N2[C@H]1C(=O)O", "max response / %": -2.77}
{"MOLECULE": "COC(=O)c1cccnc1", "max response / %": 29}
{"MOLECULE": "O=C(CCBr)N1CCN(C(=O)CCBr)CC1", "max response / %": -1.41}
{"MOLECULE": "NNc1nnc(NN)c2ccccc12", "max response / %": 5.69}
{"MOLECULE": "CN1C(C)(C)CCCC1(C)C", "max response / %": -1.65}
{"MOLECULE": "Cc1ccccc1N=Nc1ccc(N=Nc2c(O)ccc3ccccc23)c(C)c1", "max response / %": 7.02}
{"MOLECULE": "O[C@@H]1CO[C@H]2[C@@H]1OC[C@@H]2O", "max response / %": -6.28}
{"MOLECULE": "NS(=O)(=O)c1ccc(NC(=O)CCC(=O)O)cc1", "max response / %": -3.82}
{"MOLECULE": "NC(=O)CCCCC1CCSS1 (stereo not drawn)", "max response / %": 0.706}
{"MOLECULE": "Cc1ccc(S(=O)(=O)NC(=O)NC2CCCCC2)cc1", "max response / %": 0.0407}
{"MOLECULE": "COC(=O)c1ccccc1C(=O)c1ccc(OCCN2CCCCC2)cc1", "max response / %": -9.15}
{"MOLECULE": "Cc1cc(C)c(NC(=O)CN(CC(=O)O)CC(=O)O)c(C)c1Br", "max response / %": 9.03}
{"MOLECULE": "CN1CCN(C(=O)C2CCCCC2)CC1", "max response / %": 11.1}
{"MOLECULE": "O=C(OOC(=O)c1ccccc1)c1ccccc1", "max response / %": -8.14}
{"MOLECULE": "CC(=O)N[C@@H](CC(C)C)C(=O)O", "max response / %": -15.3}
{"MOLECULE": "CCCCCCCCCCCCCCCCCCO", "max response / %": 4.31}
{"MOLECULE": "Cc1cc(C)nc(NS(=O)(=O)c2ccc(N)cc2)n1", "max response / %": -2.99}
{"MOLECULE": "Cc1ncc(CO)c(CN)c1O", "max response / %": 6.59}
{"MOLECULE": "CC1CCc2cc(F)cc3c(=O)c(C(=O)O)cn1c23 (stereo not drawn)", "max response / %": -10.9}
{"MOLECULE": "CC(=O)Nc1ccccc1", "max response / %": 9.51}
{"MOLECULE": "Cc1c(C(=O)NCCO)[n+](=O)c2ccccc2n1[O-]", "max response / %": 6.22}
{"MOLECULE": "CCCCCCCCCCC(CO)CCCCCCCC (stereo not drawn)", "max response / %": -4.55}
{"MOLECULE": "COc1ccc(C(=O)N2CCN(CC(=O)N3CCOCC3)CC2)cc1", "max response / %": -4.8}
{"MOLECULE": "CC(=O)NS(=O)(=O)c1ccc(N)cc1", "max response / %": 2.53}
{"MOLECULE": "CCCCCCCC(=O)OCC(O)CO (stereo not drawn)", "max response / %": 0.163}
{"MOLECULE": "OCC(O)CS (stereo not drawn)", "max response / %": 0.0928}
{"MOLECULE": "CC(=O)Oc1cccc(O)c1", "max response / %": 2.07}
{"MOLECULE": "CC(C)CCOC(=O)c1ccc(N(C)C)cc1", "max response / %": -13.7}
{"MOLECULE": "CCCCCOC(=O)Nc1nc(=O)n([C@@H]2O[C@H](C)[C@@H](O)[C@H]2O)cc1F", "max response / %": 5.02}
{"MOLECULE": "OC[C@@H](O)[C@@H](O)[C@H](O)[C@H](O)CO", "max response / %": 5.56}
{"MOLECULE": "O=C(O)c1cc(=O)c2ccccc2o1", "max response / %": 42.7}
{"MOLECULE": "CC(C)c1cc2c(cc1S(=O)(=O)O)[C@@]1(C)CCC[C@@](C)(C(=O)O)[C@@H]1CC2", "max response / %": -8.74}
{"MOLECULE": "COc1cc(C(=O)NCCCCCC(=O)O)cc(OC)c1OC", "max response / %": 4.11}
{"MOLECULE": "CC(=O)Nc1cccc(O)c1", "max response / %": 5.77}
{"MOLECULE": "CC(C)CCCC(C)CCCC(C)CCCCC(C)CCCC(C)CCCC(C)C (stereo not drawn)", "max response / %": 5.26}
{"MOLECULE": "O=C1CC[C@@H](C(=O)O)N1", "max response / %": -5.19}
{"MOLECULE": "Cc1cccc(C(=O)O)c1O", "max response / %": 2.78}
{"MOLECULE": "COc1ccc2cc(CCC(C)=O)ccc2c1", "max response / %": -1.38}
{"MOLECULE": "Cc1cc(NC(=O)C2=C(O)c3ccccc3S(=O)(=O)N2C)no1", "max response / %": -9.54}
{"MOLECULE": "CC(O)CCCCn1c(=O)c2c(ncn2C)n(C)c1=O (stereo not drawn)", "max response / %": -9.87}
{"MOLECULE": "NNC(=O)CP(=O)(c1ccccc1)c1ccccc1", "max response / %": -4.41}
{"MOLECULE": "CC(C)=CCC[C@@](C)(O)[C@H]1CC=C(C)CC1", "max response / %": 10.2}
{"MOLECULE": "CC(C)NC[C@@H](O)COc1ccc(CC(N)=O)cc1", "max response / %": 23.6}

Values from PubChem BioAssay (NCATS)
